Assignment: determine reported IC50 for the given compounds.
molecular target: Histone deacetylase 1 (Homo sapiens); experiment: Inhibition of human recombinant full length HDAC1 using (Ac)-Lys-Tyr-Lys(-acetyl)-AMC substrate after 30 mins
Sequence (Q13547 whole entry): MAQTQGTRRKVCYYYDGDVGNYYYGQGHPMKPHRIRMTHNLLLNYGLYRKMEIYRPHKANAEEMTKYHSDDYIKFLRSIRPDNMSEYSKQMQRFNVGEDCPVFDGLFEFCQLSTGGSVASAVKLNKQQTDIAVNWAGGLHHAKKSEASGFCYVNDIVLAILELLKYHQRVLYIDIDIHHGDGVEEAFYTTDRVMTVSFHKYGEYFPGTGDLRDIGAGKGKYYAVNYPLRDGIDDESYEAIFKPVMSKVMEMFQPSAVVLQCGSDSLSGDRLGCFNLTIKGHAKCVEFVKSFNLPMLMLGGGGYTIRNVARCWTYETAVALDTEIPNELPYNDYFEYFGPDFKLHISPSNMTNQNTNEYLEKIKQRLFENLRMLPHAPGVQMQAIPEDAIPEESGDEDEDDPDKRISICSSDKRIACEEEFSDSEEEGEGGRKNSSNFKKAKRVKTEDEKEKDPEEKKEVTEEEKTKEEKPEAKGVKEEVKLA

Which IC50 is listed for CCN(CC)c1ccc(Nc2ncnc3sc(NC(=O)CCCCCCC(=O)NO)cc23)cc1F ?
4.57 nM

Which IC50 is listed for O=C(CCCCCCC(=O)Nc1cc2c(Nc3ccc(F)cc3F)ncnc2s1)NO ?
10.1 nM

Which IC50 is listed for O=C(CCCCCCC(=O)Nc1cc2c(Nc3ccc(N4CCCC4)c(F)c3)ncnc2s1)NO ?
14.5 nM

Which IC50 is listed for O=C(CCCCCCC(=O)Nc1cc2c(Nc3ccc(Br)cc3F)ncnc2s1)NO ?
13.5 nM

Which IC50 is listed for Cc1ccc(Nc2ncnc3sc(NC(=O)CCCCCC(=O)NO)cc23)cc1C ?
29.8 nM

Which IC50 is listed for O=C(CCCCCC(=O)Nc1cc2c(Nc3ccccc3)ncnc2s1)NO ?
11.8 nM
